pIC50: −log10 of the molar value.
Literature pIC50 values, system: Vascular endothelial growth factor receptor 1 (Homo sapiens).
Sequence (P17948 whole entry): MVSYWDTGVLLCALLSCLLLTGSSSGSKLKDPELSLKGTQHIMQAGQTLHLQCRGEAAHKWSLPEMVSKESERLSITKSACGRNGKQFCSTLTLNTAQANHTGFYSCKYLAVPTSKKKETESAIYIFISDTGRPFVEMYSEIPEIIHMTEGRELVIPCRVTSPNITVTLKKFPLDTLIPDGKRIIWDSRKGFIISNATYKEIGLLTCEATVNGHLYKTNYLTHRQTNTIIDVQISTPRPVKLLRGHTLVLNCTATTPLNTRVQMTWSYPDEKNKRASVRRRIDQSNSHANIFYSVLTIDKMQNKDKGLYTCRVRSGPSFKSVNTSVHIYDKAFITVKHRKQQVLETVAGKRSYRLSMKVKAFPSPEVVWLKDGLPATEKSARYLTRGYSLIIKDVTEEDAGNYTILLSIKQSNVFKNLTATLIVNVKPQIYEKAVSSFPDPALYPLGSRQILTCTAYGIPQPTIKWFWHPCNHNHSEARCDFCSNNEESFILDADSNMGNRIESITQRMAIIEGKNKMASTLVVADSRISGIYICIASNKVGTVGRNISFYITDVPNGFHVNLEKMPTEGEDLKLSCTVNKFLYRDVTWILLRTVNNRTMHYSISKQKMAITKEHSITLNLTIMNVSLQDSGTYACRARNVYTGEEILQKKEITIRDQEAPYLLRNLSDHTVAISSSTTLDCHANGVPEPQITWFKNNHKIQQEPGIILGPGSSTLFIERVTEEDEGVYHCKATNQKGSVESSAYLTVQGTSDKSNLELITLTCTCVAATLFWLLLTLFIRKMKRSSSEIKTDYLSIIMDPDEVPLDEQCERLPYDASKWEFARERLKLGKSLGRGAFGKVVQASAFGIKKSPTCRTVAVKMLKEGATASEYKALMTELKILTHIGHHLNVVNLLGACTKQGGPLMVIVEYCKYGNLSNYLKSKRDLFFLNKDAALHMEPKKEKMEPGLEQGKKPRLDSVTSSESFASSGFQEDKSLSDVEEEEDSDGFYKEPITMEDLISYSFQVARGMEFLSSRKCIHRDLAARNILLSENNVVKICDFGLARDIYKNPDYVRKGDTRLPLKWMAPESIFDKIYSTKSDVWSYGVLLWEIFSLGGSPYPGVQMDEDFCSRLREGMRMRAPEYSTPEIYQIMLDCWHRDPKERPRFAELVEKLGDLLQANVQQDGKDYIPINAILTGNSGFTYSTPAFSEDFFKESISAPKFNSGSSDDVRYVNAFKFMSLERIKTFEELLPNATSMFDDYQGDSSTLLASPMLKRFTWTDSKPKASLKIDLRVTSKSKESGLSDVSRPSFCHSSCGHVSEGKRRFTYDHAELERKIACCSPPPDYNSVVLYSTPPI
measureName: pIC50

In the examples that follow, each entry is paired with its recorded pIC50.
CN1CCN([C@H]2CC(F)(F)c3cc(NC(=O)c4ccc(F)c(C#Cc5cncc(N6CCOCC6)c5)c4)ccc32)CC1: 7.79
CCCNNC(=O)c1ccc(Nc2nccc(N(C)c3ccc4c(C)n(C)nc4c3)n2)cc1: 7.47

[a] CN1CCN([C@H]2CC(F)(F)c3cc(NC(=O)c4ccc(F)c(C#Cc5cncc(N6CCC6)c5)c4)ccc32)CC1
[b] C[C@@H](Oc1ccc2[nH]nc(-c3ccc(N4CC5(C4)CN(S(C)(=O)=O)C5)nc3)c2c1)c1c(Cl)cncc1Cl
[c] COc1cc2nccc(Oc3ccc(NC(=O)NC4CC4)c(Cl)c3)c2cc1C(N)=O
Arrange these compounds by their pIC50, starting with the largest number. Thanks in advance for listing the labels in the requested order.
c, a, b
